B1: library; numbered along this chain (parent)
chain: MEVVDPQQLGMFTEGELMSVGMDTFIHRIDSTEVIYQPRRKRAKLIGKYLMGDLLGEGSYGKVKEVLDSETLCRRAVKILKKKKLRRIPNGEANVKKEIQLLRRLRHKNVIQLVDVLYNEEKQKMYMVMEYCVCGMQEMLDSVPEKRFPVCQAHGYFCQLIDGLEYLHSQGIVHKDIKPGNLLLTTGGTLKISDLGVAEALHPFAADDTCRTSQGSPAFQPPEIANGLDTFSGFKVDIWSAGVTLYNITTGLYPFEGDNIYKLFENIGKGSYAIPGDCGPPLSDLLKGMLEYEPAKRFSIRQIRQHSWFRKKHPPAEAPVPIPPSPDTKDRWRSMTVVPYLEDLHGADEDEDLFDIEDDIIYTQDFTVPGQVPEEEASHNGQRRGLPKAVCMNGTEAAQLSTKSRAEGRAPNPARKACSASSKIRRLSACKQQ

Variants of: B1
assay_text: STK11 functional score (HeLa growth suppression), rescaled enrichment; synonymous median = 1, nonsense median = 0 (normalised score)
condition_description: with HeLa; variant type: missense
property_name: STK11 functional score
Answers are plain numbers.

The cases that follow already have their STK11 functional score on record.
variant_designation: E199L
property_name: STK11 functional score
meas_value: 0.971
//
variant_designation: Y49W
property_name: STK11 functional score
meas_value: 1.01

We next turn to a different variant, shown below.
Recorded STK11 functional score of `P149S` , please.
0.988
